target: isolated nNOS from rat cerebella (Rattus norvegicus); assay: Arginine assay according to the invention (HTS NOS assay, cation exchanger filter MTP); conditions: read-out: IC50 value, Arginine assay according to the invention as in Example 4; [3H]arginine 50 nM; nNOS from rat cerebella; 96 well cation exchanger filter MTP
PROPERTY: IC50

Requested read-out: IC50. Entry: "FC(F)(F)c1ccccc1-n1ccnc1"
> 100 µM

====

Target: isolated nNOS from rat cerebella (Rattus norvegicus, UniProt P29476)
Test: Citrulline assay according to Bredt and Snyder (1990), separation by column chromatography
Type: biochemical
Conditions: [3H]arginine 50 nM
Text: On completion of the reaction the enzyme mixtures are passed over separate cation exchange columns. Elution of the [^3H]L-citrulline and determination of the eluates then takes place on a β-counter. The disadvantage of this method is that column chromatography has to take place separately for each enzyme mixture (e.g. 96 chromatography columns are needed per 96 well microtiter plate). The precipitate is discarded. The separation was effected by means of column chromatography.
PROPERTY: IC50 (µM)
One number for each entry, in µM.

Requested read-out: IC50. Entry: "C=CCC(=N)NCCC[C@H](N)C(=O)O"
5.57
